Source listed as patent US5847092A.

Tested on: Escherichia coli ATCC 25922
assay.endpoint: MIC (µg/mL)
Answer with a number only, understood to be in µg/mL.

INSERT INTO measurements (molecule, unit_spec, endpoint_value) VALUES
  ('CC[C@H]1OC(=O)[C@H](C)[C@@H](O[C@H]2C[C@@](C)(OC)[C@@H](O)[C@H](C)O2)[C@H](C)[C@@H](O[C@@H]2O[C@H](C)C[C@H](N(C)C)[C@H]2O)[C@](C)(O)C[C@@H](C)/C(=N\OCCN(C)CCCCCCN(C)Cc2ccccc2)[C@H](C)[C@@H](O)[C@]1(C)O [Compound 38]', 'µg/mL', 8),
  ('CC[C@H]1OC(=O)[C@H](C)[C@@H](O[C@H]2C[C@@](C)(OC)[C@@H](O)[C@H](C)O2)[C@H](C)[C@@H](O[C@@H]2O[C@H](C)C[C@H](N(C)C)[C@H]2O)[C@](C)(O)C[C@@H](C)/C(=N\OCCCCCCNCCCNCc2ccccc2)[C@H](C)[C@@H](O)[C@]1(C)O [Compound 7]', 'µg/mL', 4);

For the next question, use this molecule.
Value lookup for MIC; key = CC[C@H]1OC(=O)[C@H](C)[C@@H](O[C@H]2C[C@@](C)(OC)[C@@H](O)[C@H](C)O2)[C@H](C)[C@@H](O[C@@H]2O[C@H](C)C[C@H](N(C)C)[C@H]2O)[C@](C)(O)C[C@@H](C)/C(=N\OCCNCCCCCCNCc2ccc(F)cc2)[C@H](C)[C@@H](O)[C@]1(C)O [Compound 16]
2
